- assay.target: T1, Human OSCAR (osteoclast-associated receptor), full length, on cells (human)
- T1 construct: The signal peptide limits cannot be read from the text; also called hOSCAR; HEK-OSCAR cells
- T1 chain: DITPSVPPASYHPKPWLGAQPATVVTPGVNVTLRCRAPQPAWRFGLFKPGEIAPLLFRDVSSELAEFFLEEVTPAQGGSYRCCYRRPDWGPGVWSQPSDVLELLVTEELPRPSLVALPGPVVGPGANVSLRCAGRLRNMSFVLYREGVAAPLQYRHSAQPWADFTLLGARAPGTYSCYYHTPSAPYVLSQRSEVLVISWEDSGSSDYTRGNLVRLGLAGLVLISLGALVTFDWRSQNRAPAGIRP
- assay: flow cytometry on primary human monocytes, donor #1
- Description: Cell number and viability were determined using a Cedex cell counter. The cells were diluted in washing buffer (1×PBS (—Ca²⁺/—Mg²⁺)+5% FBS+0.1% Na-azide) to 10⁷ cells/90 μl. […] Cells were washed in PBS, re-suspended in fixation buffer (1×PBS (—Ca²⁺/—Mg²⁺), pH7.2+1% formalin (B&B, #LAB96751.0500) and analysed by FACS flow cytometer. EC₅₀ values were calculated using a GraphPad Prism 5 software.
Exercise: for every item that follows, state its recorded EC50.
Report as a plain number; the unit nM is understood.

What does the record list as EC50 for 4F3B (antibody, V domains shown, Mouse anti-human OSCAR mAb (its isotype control is mIgG1); The heavy chain entry covers only VH-CH1 and the start of the hinge; It was fluorescein-labelled in the peptide array and Alexa Fluor 647-labelled in the flow binning; also called mAb 4F3B) VH: QVQLQQSGAELAKPGASVKMSCKASGFTFTSYWMHWVKQRPGQGLEWIGYINPSTDYTEYNQKFKDKATLTADKSSSTAYMQLSSLTSEDSAVYYCARRSPFAMDYWGQGTSVTVSS VL: DIVMTQSPSSLTVTAGEKVTMSCKSSQSLLNSGNQKNYLTWYQQKPGQPPKVLIYWASTRESGVPDRFTGSGSGTDFTLTISSVQAEDLAVYYCQNDYSYPLTFGTGTKLELKR ?
0.66

Which value of EC50 has been reported for 7F10A1 (antibody, V domains shown, Mouse anti-human OSCAR mAb; The heavy chain entry covers only VH-CH1 and the start of the hinge) VH: QVQLQQSGAELARPGASVKLSCKASGYTFTDNYINWVKQRTGQGLEWIGEIYPGSGNTYYNEKFKGKATLTADKSSSTAYMQLSSLTSEDSAVYFCARSANRYDRGDFDYWGQGTPLTVSS VL: QILLTQSPAIMSASPGEKVTMTCSASSSVSYMHWYQQKPGSSPKPWIYDTSNLASGFPARFSGSGSGTSYSLIISSMEAEDAATYYCHQRSSYPYTFGGGTKLEIKR in the records?
1.2
